Assay: Cytotoxicity against bovine MDBK cells assessed as cell viability after 3 days by MTS/PMS assay
Assay type: cell-based, Bos taurus
Details: cattle
measured_parameter: CC50 at 72 h

Problem: Hello, please tell me recorded CC50 at 72 h for this one: Nc1ncnc2c1nnn2[C@@H]1c2ccccc2C[C@@H]1O
Result: > 500 µM

Problem: Hello, please tell me recorded CC50 at 72 h for this one: Oc1ncnc2c1nnn2[C@@H]1c2ccccc2C[C@@H]1O
Result: > 500 µM

Problem: Hello, please tell me recorded CC50 at 72 h for this one: Nc1ncnc2c1nnn2[C@H]1c2ccccc2C[C@H]1O
Result: > 500 µM

Problem: Hello, please tell me recorded CC50 at 72 h for this one: Oc1ncnc2c1nnn2[C@H]1c2ccccc2C[C@@H]1O
Result: > 500 µM

Problem: Hello, please tell me recorded CC50 at 72 h for this one: O[C@@H]1Cc2ccccc2[C@H]1n1cnc2c(Cl)ncnc21
Result: > 500 µM

Problem: Hello, please tell me recorded CC50 at 72 h for this one: Oc1ncnc2c1nnn2[C@H]1c2ccccc2C[C@H]1O
Result: > 500 µM

Problem: Hello, please tell me recorded CC50 at 72 h for this one: Nc1ncnc2c1nnn2[C@H]1c2ccccc2C[C@@H]1O
Result: > 500 µM

Problem: Hello, please tell me recorded CC50 at 72 h for this one: O[C@H]1Cc2ccccc2[C@@H]1n1cnc2c(Cl)ncnc21
Result: > 500 µM

Problem: Hello, please tell me recorded CC50 at 72 h for this one: Oc1ncnc2c1nnn2[C@@H]1c2ccccc2C[C@H]1O
Result: > 500 µM

Problem: Hello, please tell me recorded CC50 at 72 h for this one: O[C@H]1Cc2ccccc2[C@H]1n1cnc2c(Cl)ncnc21
Result: > 500 µM

Problem: Hello, please tell me recorded CC50 at 72 h for this one: Nc1ncnc2c1nnn2[C@@H]1c2ccccc2C[C@H]1O
Result: > 500 µM

---

Experiment: Antiviral activity against Bovine viral diarrhea virus 1-NADL ATCC VR534 infected in MDBK cells assessed as reduction of viral cytopathic effect after 2 days bt MTS assay
Assay type: functional, cell-based
Settings: Bovine viral diarrhea virus isolates and strains, 48 h
measured_parameter: EC50 (µM)
Give just the numeric value; µM need not be written.

Problem: Hello, please tell me recorded EC50 for this one: NC(=O)c1ncn([C@@H]2O[C@H](CO)[C@@H](O)[C@H]2O)n1 [RIBAVIRIN]
Result: 4.6

---

Assay: Cytotoxicity against bovine MDBK cells assessed as cell viability after 72 hrs by MTS/PMS assay
Format: cell-based, Bos taurus
Conditions: cattle
measured_parameter: CC50 at 72 h (µM)
Give just the numeric value; µM need not be written.

Problem: Hello, please tell me recorded CC50 at 72 h for this one: O[C@@H]1Cc2ccccc2[C@@H]1n1cnc2c(Cl)ncnc21
Result: 14.3
